experiment: Volume of distribution at steady state in ICR mouse at 15 mg/kg, iv by LC-MS/MS analysis; format: ADME, organism-based; set-up: dose 15 mg/kg, route intravenous; details: in vivo, read-out: Vdss
measured_endpoint: Vd (L/kg)
Write down the numeric answer in L/kg and omit the unit.

Noted for COc1cc(C(=O)c2cccc(-c3cc4ccccc4[nH]3)c2)cc(OC)c1OC : its Vd reads 9.8

----------
test: Tmax in ICR mouse at 1 mg/kg, po by LC-MS/MS analysis; type: ADME, organism-based; set-up: dose 1 mg/kg, route oral; conditions: in vivo
measured_endpoint: Tmax (min)
Value expressed in min; do not type the unit.

Per the record, COc1cc(C(=O)c2cccc(-c3cc4ccccc4[nH]3)c2)cc(OC)c1OC has Tmax of 30

----------
assay: Metabolic stability in human liver microsomes assessed as half life during phase 1 and 2 at 0.5 uM by LC-MS/MS analysis in presence of 3 mM NADPH and 5 mM UDPGA; conditions: read-out: alphat1/2
measured_endpoint: half-life at 0.5 µM

Looking up COc1cc(C(=O)c2cccc(-c3cc4ccccc4[nH]3)c2)cc(OC)c1OC , I found its half-life at 0.5 µM recorded as 30 min
